Test system: NCI-H524 (ATCC) human lung cancer cells
Type: cell-based
RUN PARAMETERS: Table 15; treated 2 hours, further incubated 70 hours; read-out: H524 IC50
Bridge positions count the residues as written; N and C are the ends. Square brackets hold non-standard residues; d marks the D form. Peptide text beside a SMILES is read from it. * marks the point of attachment. NH(CH2)2SS(DM1) = COc1cc2cc(c1Cl)N(C)C(=O)C[C@H](OC(=O)[C@H](C)N(C)C(=O)CCSSCCN*)[C@]1(C)O[C@H]1[C@H](C)[C@@H]1C[C@@](O)(NC(=O)O1)[C@H](OC)/C=C/C=C(\C)C2
READOUT LABEL: pIC50
Conceptually, pIC50 converts a concentration in mol/L into minus its log10.

Q: # query: pIC50 | item COc1cc2cc(c1Cl)N(C)C(=O)C[C@H](OC(=O)[C@H](C)N(C)C(=O)CCSSCCC(=O)N1CCN(C(=O)CC[C@H]3C(=O)N[C@@H](Cc4ccc(O)cc4)C(=O)N[C@H](Cc4c[nH]c5ccccc45)C(=O)N[C@@H](CCCCN)C(=O)N[C@@H]([C@@H](C)O)C(=O)N[C@@H](Cc4ccccc4)C(=O)N3C)CC1)[C@]1(C)O[C@H]1[C@H](C)[C@@H]1C[C@@](O)(NC(=O)O1)[C@H](OC)/C=C/C=C(\C)C2 [Conjugate 26] | system: NCI-H524 (ATCC) human lung cancer cells
A: 6.10

Q: Try this molecule too: COc1cc2cc(c1Cl)N(C)C(=O)C[C@H](OC(=O)[C@H](C)N(C)C(=O)CCSSCCNC(=O)[C@@H]1CSSC[C@H](NC(=O)[C@H](N)Cc3ccccc3)C(=O)N[C@@H](Cc3ccc(O)cc3)C(=O)N[C@H](Cc3c[nH]c4ccccc34)C(=O)N[C@@H](CCCCN)C(=O)N[C@@H]([C@@H](C)O)C(=O)N1)[C@]1(C)O[C@H]1[C@H](C)[C@@H]1C[C@@](O)(NC(=O)O1)[C@H](OC)/C=C/C=C(\C)C2 [Conjugate 59] (H-[dF]CY[dW]KTC-{NH(CH2)2SS(DM1)}; disulfide 2-7)
A: 7.62

Q: Try this molecule too: COc1cc2cc(c1Cl)N(C)C(=O)C[C@H](OC(=O)[C@H](C)N(C)C(=O)CCSSC[C@H](NC(=O)CC[C@H]1C(=O)N[C@@H](Cc3ccc(O)cc3)C(=O)N[C@H](Cc3c[nH]c4ccccc34)C(=O)N[C@@H](CCCCN)C(=O)N[C@@H]([C@@H](C)O)C(=O)N[C@@H](Cc3ccccc3)C(=O)N1C)C(=O)NC(C)(C)CC(C)(C)C)[C@]1(C)O[C@H]1[C@H](C)[C@@H]1C[C@@](O)(NC(=O)O1)[C@H](OC)/C=C/C=C(\C)C2 [Conjugate 16]
A: 6.65

Q: Try this molecule too: COc1cc2cc(c1Cl)N(C)C(=O)C[C@H](OC(=O)[C@H](C)N(C)C(=O)CCSSC[C@@H](N)C(=O)N[C@H]1CSSC[C@@H](C(=O)N[C@H](C(=O)O)[C@@H](C)O)NC(=O)[C@H]([C@@H](C)O)NC(=O)[C@H](CCCCN)NC(=O)[C@@H](Cc3c[nH]c4ccccc34)NC(=O)[C@H](Cc3ccc(O)cc3)NC1=O)[C@]1(C)O[C@H]1[C@H](C)[C@@H]1C[C@@](O)(NC(=O)O1)[C@H](OC)/C=C/C=C(\C)C2 [Conjugate 119]
A: 5.58

Q: Try this molecule too: COc1cc2cc(c1Cl)N(C)C(=O)C[C@H](OC(=O)[C@H](C)N(C)C(=O)CCSSCCC(=O)NCCOCCOCCOCCNC(=O)[C@@H](NC(=O)[C@@H]1CSSC[C@H](NC(=O)[C@H](N)Cc3ccccc3)C(=O)N[C@@H](Cc3ccc(O)cc3)CN[C@H](Cc3c[nH]c4ccccc34)C(=O)N[C@@H](CCCCN)C(=O)N[C@@H]([C@@H](C)O)C(=O)N1)[C@@H](C)O)[C@]1(C)O[C@H]1[C@H](C)[C@@H]1C[C@@](O)(NC(=O)O1)[C@H](OC)/C=C/C=C(\C)C2 [Conjugate 47]
A: 5.67
